Listed here are compounds together with their documented minimal effective dose.
# Test system: NMRI-mice
# Protocol: Acceleration of gastric emptying and small intestinal propulsion in NMRI-mice
# Assay type: in vivo
# Conditions: Mus musculus, sc; lowest active dose; subcutaneous, 30 min before phenol red test meal; stomach content 15 min after meal; active when >60% of animals below 0.9 extinction units; read-out: LAD (mg/kg) Gastric emptying
Hi! Could you send only the number? It should be in mg/kg, unit omitted.

Request: What value of measured minimal effective dose is listed for COCCN(C)CCCC1(O)c2ccccc2CCCC1c1ccc(C)cc1 (racemic) ?
Response: 10

Request: What value of measured minimal effective dose is listed for CN(C)CCCC1(O)c2ccccc2CCCC1c1ccc(Cl)cc1 (single isomer, unassigned) ?
Response: 0.63

Request: What value of measured minimal effective dose is listed for CN(C)CCCC1(O)c2ccccc2OCCC1c1ccc(Cl)cc1 (racemic) ?
Response: 10

Request: What value of measured minimal effective dose is listed for CN(C)CCCC1(O)c2ccccc2CCCC1c1ccccc1 (racemic) [Compound 106] ?
Response: 10

Request: What value of measured minimal effective dose is listed for CN(C)CCCC1(O)c2ccccc2CCCC1c1ccc(F)cc1F (racemic) ?
Response: 10

Request: What value of measured minimal effective dose is listed for Cc1ccc(C2CCOc3ccccc3C2(O)CCCN(C)C)cn1 (racemic) ?
Response: 10

Request: What value of measured minimal effective dose is listed for COc1cc(C2CCOc3ccccc3C2(O)CCCN(C)C)ccc1Cl (racemic) ?
Response: 2.5

---

# Measured target: GHS1A-receptor (Homo sapiens)
# Construct: expressed in transfected cells; host or cells: HEK293
# Sequence (Q92847 whole entry): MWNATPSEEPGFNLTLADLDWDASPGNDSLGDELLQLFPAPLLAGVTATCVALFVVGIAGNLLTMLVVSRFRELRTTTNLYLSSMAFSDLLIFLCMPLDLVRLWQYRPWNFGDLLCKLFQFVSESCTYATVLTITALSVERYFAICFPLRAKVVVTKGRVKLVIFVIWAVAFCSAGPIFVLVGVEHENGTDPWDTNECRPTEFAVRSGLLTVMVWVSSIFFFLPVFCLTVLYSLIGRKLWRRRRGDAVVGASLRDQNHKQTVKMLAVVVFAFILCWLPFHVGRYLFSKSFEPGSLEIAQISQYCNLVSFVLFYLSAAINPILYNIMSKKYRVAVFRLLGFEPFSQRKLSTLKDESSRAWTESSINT
# Protocol: Ghrelin-agonism in HEK293 cells (intracellular calcium, FLIPR)
# Type: cell-based
# Conditions: HEK293 cells permanently transfected with GHS1A-receptor, calcium fluorescence (fluo-4 or Kit-3), EC50 in M, read-out: pEC50 (converted)
# Description: One day before the experiment, HEK293 cells, permanently transfected with the gene sequence for expression of the GHS1A-receptor, were seeded in poly-D-Lysine coated 96-well plates with clear bottom, and allowed to grow to […] of confluence on the next day. Then, cells were incubated with the calcium-sensitive intracellular fluorescent probe fluo-4 or Kit-3 for 1 h at 37° C. […]
Listed here are compounds together with their documented EC50.

Solved cases below.
Request: What value of measured EC50 is listed for COc1cccc(C2CCCc3ccccc3C2(O)CCCN2CCN(C(C)=O)CC2)c1 (racemic) [Compound 63] ?
Response: > 10 µM

Request: What value of measured EC50 is listed for COc1ccc(C2CCCc3ccccc3C2(O)CCCN2CCN(C(C)=O)CC2)cc1 (racemic) [Compound 71] ?
Response: > 10 µM

Further cases:
Request: What value of measured EC50 is listed for Oc1ccc([C@H]2CCCc3ccccc3[C@]2(O)CCCN2CCOCC2)cc1 (racemic) [Compound 7] ?
Response: > 10 µM
